Can you tell me isotherm data point (enthalpy change per injection) for the items I'm about to list?
target: UCP1 (Homo sapiens); construct: His8 (N, cleaved yes); Factor Xa protease cleavage site (N, cleaved yes); made in house; host or cells: Saccharomyces cerevisiae strain W303.1B; experiment: Isothermal titration calorimetry of nucleotide binding; parameters: unit not given here; conditions: Molar ratio (Nucleotide/UCP) 1.83995; representative isotherm, pH 6.0, 20 °C

IN: // isotherm data point (enthalpy change per injection) lookup, key: Nc1ccn(C2OC(COP(=O)(O)OP(=O)(O)OP(=O)(O)O)C(O)C2O)c(=O)n1 (stereo not shown)
OUT: 0.4921

IN: // same read-out, input: Nc1nc2c(ncn2[C@@H]2O[C@H](COP(=O)(O)OP(=O)(O)OP(=O)(O)O)[C@@H](O)[C@H]2O)c(=O)[nH]1 [GTP, guanosine triphosphate]
OUT: 0.5154

IN: Please do the same for Cc1cn([C@H]2C[C@H](O)[C@@H](COP(=O)(O)OP(=O)(O)OP(=O)(O)O)O2)c(=O)[nH]c1=O [dTTP, thymidine triphosphate] as well.
OUT: 0.8236

IN: Next compound up: O=c1ccn([C@@H]2O[C@H](CO[P@@](=O)(O)O[P@@](=O)(O)OP(=O)(O)O)[C@@H](O)[C@H]2O)c(=O)[nH]1 (stereo in doubt) [UTP, uridine triphosphate]
OUT: -0.2075

###

Give isotherm data point (enthalpy change per injection) for every item shown.
Target: UCP1 (Homo sapiens, UniProt P25874)
Construct: His8 (N, cleaved yes); Factor Xa protease cleavage site (N, cleaved yes); made in house; host or cells: Saccharomyces cerevisiae strain W303.1B
Sequence (P25874 1-307): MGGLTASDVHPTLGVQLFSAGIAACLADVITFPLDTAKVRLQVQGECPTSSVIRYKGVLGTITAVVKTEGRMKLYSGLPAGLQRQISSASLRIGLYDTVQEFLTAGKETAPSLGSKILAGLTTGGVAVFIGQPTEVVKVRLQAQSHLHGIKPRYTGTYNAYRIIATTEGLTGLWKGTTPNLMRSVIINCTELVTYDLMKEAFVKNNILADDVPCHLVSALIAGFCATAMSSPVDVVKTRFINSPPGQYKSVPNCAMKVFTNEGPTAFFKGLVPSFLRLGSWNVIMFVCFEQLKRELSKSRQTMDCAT
Assay: Isothermal titration calorimetry of nucleotide binding;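 note: purified human UCP1 in cacodylate buffer with lauryl maltose neopentyl glycol and cardiolipin, titrated with nucleotides, isotherms fitted by one-site model yielding ΔH, Kd and stoichiometry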
Design: unit not given here
Settings: Molar ratio (Nucleotide/UCP) 0.747006; representative isotherm, pH 6.0, 20 °C

IN: For Cc1cn([C@H]2C[C@H](O)[C@@H](COP(=O)(O)OP(=O)(O)OP(=O)(O)O)O2)c(=O)[nH]c1=O [dTTP, thymidine triphosphate] , what is its reported isotherm data point (enthalpy change per injection)?
OUT: -16.8767

IN: Now try O=c1ccn([C@@H]2O[C@H](CO[P@@](=O)(O)O[P@@](=O)(O)OP(=O)(O)O)[C@@H](O)[C@H]2O)c(=O)[nH]1 (stereo in doubt) [UTP, uridine triphosphate] .
OUT: -12.0255

IN: Also, Nc1ccn(C2OC(COP(=O)(O)OP(=O)(O)OP(=O)(O)O)C(O)C2O)c(=O)n1 (stereo not shown) please.
OUT: -10.6677

IN: Try this compound next: Nc1nc2c(ncn2[C@@H]2O[C@H](COP(=O)(O)OP(=O)(O)OP(=O)(O)O)[C@@H](O)[C@H]2O)c(=O)[nH]1 [GTP, guanosine triphosphate]
OUT: -12.3158

Where do the numbers come from? From paper PMC12000319.
